Tested on: HCC-2998 colon
TEST: NCI tumour cell line growth inhibition, 48 h
Recorded log10 TGI, one value per entry.
Kindly note that the scale is log10 and the underlying TGI is in µM.

>>> result_number("COC(=O)c1ccc2[nH]c(O)c(C(=Nc3ccc(N(C)C(=O)CN4CCN(C)CC4)cc3)c3ccc4c(c3)OCO4)c2c1")
0.43
>>> result_number("COc1ccc(C2=C[C@]3(O)CCCN3C[C@@H]2c2ccc(OC)c(OC)c2)cc1")
-1.00
>>> result_number("CNC1(c2cc3ccccc3s2)CCCCC1")
1.46
>>> result_number("CNC(=O)OCc1nc(SSC(C)(C)C)n(C)c1COC(=O)NC")
1.35
>>> result_number("O=C1C2=Cc3ccccc3OC2(O)Oc2cc3ccccc3cc21 (stereo not drawn)")
1.87

The record that follows has no log10 TGI shown yet.
### Prompt Field request: log10 TGI | item: O=C1CS(=O)(=O)C(c2cccc(Oc3ccccc3)c2)N1c1ccc(Cl)cc1 (stereo not drawn)
### Response 1.32

----------
System: NCI/ADR-RES ovarian
TEST: NCI tumour cell line growth inhibition, 48 h; in the data active = GI50 below about 0.43 µM; inactive = the rest
# output must be one of Yes (active), No (inactive)

>>> group("CCOc1cccc(/C=N/NC(=O)c2cccc(Nc3ccnc(C(F)(F)F)c3)c2)c1O")
"No"

### Prompt For O=C(Oc1ccc[nH]c1=O)c1cc([N+](=O)[O-])cc([N+](=O)[O-])c1 , which call appears in the assay record?
### Response No

### Prompt What would you report for N/N=C\c1c2ccccc2c(=O)n2c1oc1ccccc12 ?
### Response No

### Prompt Another: O=C1C=CC(=O)C2C1C1(Cl)C(Cl)=C(Cl)C2(Cl)C1(Cl)Cl (configuration not stated)
### Response No

### Prompt Now consider CCCCCCCCn1ccc2cc(NC(=O)Cn3cc(CN4CCCCCC4)nn3)ccc21 and answer again.
### Response No

### Prompt Record: O=C(O)c1ccc(CN2CCC(CN[C@@H]3C[C@H]3c3ccccc3)CC2)cc1
### Response No

### Prompt Now try CN(c1ccc(NC(=O)Nc2c(Cl)cccc2Cl)cc1)c1ccnc(Nc2cccc(CS(C)(=O)=O)c2)n1 .
### Response No

### Prompt Would you kindly repeat that for O=C1NC(=S)S/C1=C/c1ccc2c(c1)OCO2 ?
### Response No

### Prompt [N-]=[N+]=NCCCn1c2c(c3ccc([N+](=O)[O-])cc3c1=O)C(=O)c1ccccc1-2 ?
### Response No

### Prompt Item: C=C(C)[C@@H]1CC[C@]2(COCCCN)CC[C@]3(C)[C@H](CC[C@@H]4[C@@](C)(CCCNCCCN)[C@H](C(=C)C)CC[C@]43C)[C@@H]12
### Response No

### Prompt And what about the molecule Nc1n[nH]c2cccc(C#Cc3cccc(NC(=O)c4cccc(C(F)(F)F)c4)c3)c12 ?
### Response No

### Prompt Also, COc1ccc2c(c1)C(=O)CCc1cc(OC)c(OC)c(OC)c1-2 please.
### Response Yes

----------
Each entry below carries its reported GI50.
Tested on: SK-MEL-5 melanoma
TEST: NCI tumour cell line growth inhibition, 48 h

Consider the worked cases shown below.
>>> result("O=C(Oc1ccc[nH]c1=O)c1cc([N+](=O)[O-])cc([N+](=O)[O-])c1")
"34.3 µM"
>>> result("Cc1cc(Cl)ccc1OCC(=O)Nc1nc2c(Cl)cccc2s1")
"> 100 µM"
>>> result("C=C1c2c(C)nn(-c3ccc(C#CCOC4OC(CO)C(O)C(O)C4O)cc3)c2N(C)C23C[C@H]1C1(C)c4c(C)nn(-c5ccc(C#CCOC6OC(CO)C(O)C(O)C6O)cc5)c4N(C)C(C)(C[C@H]12)C3 (some centres undefined)")
"1.38 µM"

### Prompt # get_value(readout='GI50', item= COc1cc(Nc2ncccc2C(=O)Nc2nc3ccc(F)cc3s2)cc(OC)c1OC )
### Response 1.63 µM
